- Assay System: ScAbp1
- Procedure Text: SPOT peptide array binding signal intensity (averaged, normalized) (arbitrary units (background-subtracted, floor 0; scale differs between SH3 domains)); higher = stronger binding of the SH3 domain to the peptide
Parameter: SPOT peptide array binding signal intensity
Provide a numeric answer; units are not to be included.

[
  {
    "Binder": "TSFKGRPKPPKTLKH",
    "Number": 556
  },
  {
    "Binder": "NTMKKRPAPPSLPSL",
    "Number": 30
  },
  {
    "Binder": "ALRRRLPVTRSKINW",
    "Number": 59
  },
  {
    "Binder": "STKKPRPPVKSKPKH",
    "Number": 2130
  },
  {
    "Binder": "KTITLEVESSDTIDN",
    "Number": 1
  }
]

Note SPOT peptide array binding signal intensity for the binder shown: `VQKRKLPLPGSIASA` 100

Note SPOT peptide array binding signal intensity for the binder shown: `NFFRKKLGIPRKLKR` 146

Note SPOT peptide array binding signal intensity for the binder shown: `NFKRLLPRDPSEKSS` 66.5

Note SPOT peptide array binding signal intensity for the binder shown: `ISRRRLPVIMHRLKM` 150

Note SPOT peptide array binding signal intensity for the binder shown: `NPNRRAPRRPLSTQH` 154

Note SPOT peptide array binding signal intensity for the binder shown: `EVTPKVPERPSRRKT` 141

Note SPOT peptide array binding signal intensity for the binder shown: `WTQRRGPLVVYAEDN` 1

Note SPOT peptide array binding signal intensity for the binder shown: `LKPPIGRPPKFPKSP` 887
